Assay: HIF-1a luciferase reporter signal reduction – MiaPaCa-2 cells, single concentration, counter-screen for HIF-2a inhibitor project, confirmation (AID 651589)
Conditions: MiaPaCa-2 HIF-1a luciferase reporter, desferoxamine, overnight; at 18.8 µM
This is one part of the list. Activity calls are given as the source filed them.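 Rule for the calls: active = mean inhibition of the reporter signal across four replicates at the single tested dose of 50% or more; inactive = the rest.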
Returns: one label drawn from label 1 = active, label 0 = inactive

Q) Could you please tell me the result logged for CCOc1ccc(CNC(=O)C2CCCN(c3nnc(C)c4c(C)n(-c5ccccc5)nc34)C2)cc1 (configuration not stated) in this assay?
A) label 0

Q) Check the results log: what was the call for "Cc1ccc(N(Cc2cc(=O)[nH]c3ccccc23)C(=O)CCl)cc1" ?
A) label 1

Q) Assay result, entry "CCOc1cc(/C=C(/C#N)c2ccc(Cl)cc2)cc(Cl)c1OCC(=O)O" — outcome?
A) label 1

Q) Check the results log: what was the call for "C=CCn1c(C)cc(C2=NNC(=NCC)SC2)c1C" ?
A) label 1

Q) Fill in: this test's call for CCN(CC)CCCC(C)n1c2nc(=O)[nH]c(=O)c-2nc2cc(Cl)ccc21 (configuration not stated) is ___
A) label 0

Q) What outcome does the record of this test show for "CC(C)(C)c1cc(C(=O)N/N=C/c2ccc([N+](=O)[O-])s2)n[nH]1" ?
A) label 1

Q) In this assay, the call recorded for CC1=CC(C)(C)Nc2ccc(OC(=O)CN3C(=O)C4CCCCC4C3=O)cc21 (configuration not stated) was what?
A) label 1

Q) Please state the recorded outcome for this molecule: Cc1ccc(NC(=S)NC(NC(=O)Cc2cccc3ccccc23)C(Cl)(Cl)Cl)cc1 (configuration not stated)
A) label 1

Q) What was the test verdict on "Cc1cccc2sc(N(CCCN(C)C)C(=O)CCS(=O)(=O)c3ccccc3)nc12" ?
A) label 1

Q) I'd appreciate the recorded outcome for "O=C(CCl)N(Cc1cccc([N+](=O)[O-])c1)c1cccc(Cl)c1" from this test.
A) label 1

Q) Each molecule tested received a call. Report the one for "CCOC(=O)C(=Cc1ccccc1OC)C(=O)OCC" .
A) label 1

Q) Outcome? "COc1ccc(Nc2ncnc3ccc(Br)cc23)c(OC)c1"
A) label 1

###

For each of the molecules below, state its inhibition.
Biological target: PEG-3 (UniProt Q6IN02)
Sequence (Q6IN02 whole entry, looked up): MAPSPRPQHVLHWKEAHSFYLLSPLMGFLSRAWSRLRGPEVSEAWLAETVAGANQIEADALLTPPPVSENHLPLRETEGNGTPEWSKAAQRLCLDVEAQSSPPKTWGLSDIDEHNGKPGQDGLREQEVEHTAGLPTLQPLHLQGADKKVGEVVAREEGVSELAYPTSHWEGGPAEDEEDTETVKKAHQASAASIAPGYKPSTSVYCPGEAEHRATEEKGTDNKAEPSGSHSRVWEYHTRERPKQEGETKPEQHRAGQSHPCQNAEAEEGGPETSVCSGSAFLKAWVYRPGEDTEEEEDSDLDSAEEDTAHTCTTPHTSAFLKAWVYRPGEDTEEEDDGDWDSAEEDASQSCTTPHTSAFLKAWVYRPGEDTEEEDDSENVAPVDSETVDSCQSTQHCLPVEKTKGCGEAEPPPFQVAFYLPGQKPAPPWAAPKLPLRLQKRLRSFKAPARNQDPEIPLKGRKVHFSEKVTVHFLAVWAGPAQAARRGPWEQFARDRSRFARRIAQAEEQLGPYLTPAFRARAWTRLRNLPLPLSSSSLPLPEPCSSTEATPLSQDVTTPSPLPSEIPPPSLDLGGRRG
Assay: Peg3 promoter luciferase inhibitors, potency, dose response, cell-based, HeLa, CREF/GAPDH counter-screen panel (AID 624167)
Settings: CREF/GAPDH counter-screens; HeLa PEG-Prom luciferase reporter, overnight, run 1, dose range 1, at 100 µM (top of the series) unless noted
Respond numerically; units are % and should not be typed.

Q) Requested field: inhibition. Item: "COc1ccc(CN(C)C(=O)c2cc(-c3ccccc3)nc3ccc(C)cc23)c(OC)c1OC"
A) 94.8

Q) Looking for the measured inhibition of CCOC(=O)c1ccc(NC(=O)C2CCCN(S(=O)(=O)c3ccc(F)cc3)C2)cc1 (stereo unspecified) , can you help?
A) 97.3

Q) I have this molecule here, CC(C(=O)NC1CCCC1)N(C(=O)Cn1nnc(-c2ccc(F)cc2)n1)c1ccccc1F (stereo unspecified) , and I need its recorded inhibition.
A) 99.3

Q) Bench note: what inhibition did "Cc1nc2cc(-c3ccccc3)sc2c(=O)n1N" show?
A) 102

Q) Would you kindly share the measured inhibition for "c1ccc(C[C@H]2CNCCN2CCCCC2CCCCC2)cc1" ?
A) 102

Q) Can you share its inhibition? I mean this molecule: "COC(=O)C1=C(C)N(Cc2ccccc2)C(=NCc2cccc(Cl)c2)N[C@H]1c1ccccc1"
A) 102

Q) Report inhibition for "COc1ccc(C)cc1Nc1n[n+](-c2ccccc2)c(-c2ccc(N(C)C)cc2)s1" please.
A) 97.2

Q) Form field: reported inhibition of "CC(=O)Nc1ccc(Nc2nc(C)c([N+](=O)[O-])c(Nc3ccccc3)n2)cc1"
A) 99.5

Q) Query: inhibition; subject: "CCCCNc1nc(=S)n(-c2ccccc2)c(C)c1C(C)=O"
A) 98

Q) I have this molecule here, "NC(N)=N/N=C/c1ccc(Cl)cc1Cl" , and I need its recorded inhibition.
A) 97.7

Q) For "CCOC(=O)/C(=C\c1ccccc1)C(=O)CCN1CCOCC1" , what is its reported inhibition?
A) 102

###

Assignment: determine reported activity for the given compounds.
Target: Tumor necrosis factor receptor superfamily member 10B (Homo sapiens) (UniProt O14763)
Sequence (O14763 whole entry, looked up): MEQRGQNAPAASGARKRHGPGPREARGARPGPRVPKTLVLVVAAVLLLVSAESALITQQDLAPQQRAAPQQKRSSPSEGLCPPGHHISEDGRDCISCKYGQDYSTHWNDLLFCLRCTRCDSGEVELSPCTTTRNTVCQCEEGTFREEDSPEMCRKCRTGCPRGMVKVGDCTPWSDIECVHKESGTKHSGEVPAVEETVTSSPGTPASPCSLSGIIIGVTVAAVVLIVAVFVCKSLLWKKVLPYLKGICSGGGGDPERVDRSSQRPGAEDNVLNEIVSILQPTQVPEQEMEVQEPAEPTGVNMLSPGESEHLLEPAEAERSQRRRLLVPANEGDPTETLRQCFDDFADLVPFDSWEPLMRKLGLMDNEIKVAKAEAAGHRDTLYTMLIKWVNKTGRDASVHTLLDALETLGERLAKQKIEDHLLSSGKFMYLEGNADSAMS
Assay: caspase-8 TRAIL sensitization, hit retest, confirmation, cell-based, NB7+caspase-8, with/without TRAIL, luminescence panel (AID 651596)
Conditions: NB7 neuroblastoma + caspase-8, TRAIL sensitization, luminescence viability, with TRAIL, mean of runs, at 10 µM, stronger effect = higher value
Give just the numeric value; % need not be written.

Q) // query activity value for entry "COc1ccc(-c2cc3ccccc3c(=O)o2)cc1"
A) 49.4

Q) // returns reported activity for input "CNC[C@H](Cc1ccccc1)NC[C@@H](Cc1cccc2ccccc12)NCCc1ccc(C)cc1"
A) 95.4

Q) Could you share which activity value was measured for "O=C(/C=C/c1ccco1)Nc1ccccc1C(=O)O" ?
A) 45.1

Q) Quick check: activity of "COC(=O)c1sc(NC(=O)c2cc(-c3ccccc3)nc3ccccc23)c(C#N)c1C" ?
A) 52.7

Q) activity lookup needed for "Cc1cnc(NC(=O)c2ccc3c(c2)OCCO3)s1" , thanks.
A) 98.2

Q) # activity lookup, item "Nc1nc(Nc2ccccc2)nc2ccccc12"
A) 69.2

Q) What does the record list as activity for "CC(C)C[C@H](NC(=O)c1nc[nH]c1C(=O)N[C@@H](CCCCNC(=O)OC(C)(C)C)C(=O)OC(C)(C)C)C(=O)OCc1ccccc1" ?
A) 77.7

Q) Which activity is reported for this compound? "O=C(/C=C/Nc1ccccc1C(F)(F)F)c1ccco1"
A) 97.2

Q) // query activity value for entry "O=C(/C=C\Nc1ccccn1)c1ccccc1"
A) 55.4

Q) I would be grateful if you could share the reported activity for "CCOC(=O)c1cccc(NC(=O)/C=C/c2ccc3c(c2)OCO3)c1" .
A) 78.9

Q) Fill in the blank: the reported activity of CC[C@H]1CN2CCc3cc(OC)c(OC)cc3C2C[C@@H]1C[C@H]1NCCc2cc(OC)c(OC)cc21 (stereo partly drawn) is ____.
A) 70

Q) GET /values?readout=activity&item= "Cc1ccc(N2Cc3ccccc3C2=O)cc1"
A) 64.7

Q) Form field: reported activity of "COc1ccc(/C(C)=N/Nc2nncc3ccccc23)cc1"
A) 59.6

Q) Report activity for "Cc1ccc(N(Cc2cc(=O)[nH]c3ccccc23)C(=O)CCl)c(C)c1" please.
A) 96.8

Q) Query (compound): "CCCCN(CC)S(=O)(=O)c1ccc(C(=O)N=c2sc3cc(NC(C)=O)ccc3n2C)cc1" ; field requested: activity
A) 20.9

Q) Endpoint output: activity of "Cc1ccc2nc(/C(C#N)=C\c3ccc([N+](=O)[O-])o3)[nH]c2c1" . Value?
A) 95.6

Q) Could you share which activity value was measured for "O=C(/C=C/c1ccccc1)Nc1ccc2c(c1)C(=O)NC2=O" ?
A) 14.6

Q) Name the reported activity value associated with the compound "CCc1ccc(Nc2n[n+](-c3ccccc3)c(-c3ccc(N(CC)CC)cc3)s2)cc1"
A) 45.2

Q) Reported activity for "O=C(COC(=O)c1n[nH]c2ccccc12)NC(=O)NC12CC3CC(CC(C3)C1)C2" : what is it?
A) 51.5

Q) Name the reported activity value associated with the compound "c1ccc(-c2cn3c4c(sc3n2)CCCC4)cc1"
A) 94

Q) Endpoint output: activity of "Cc1cc(-c2ccc(F)cc2)n2ncc(-c3ccccc3)c2n1" . Value?
A) 76.6

Q) Param item = CC(C)(C)NC(=O)C(c1ccncc1)n1c(-c2ccc(C(F)(F)F)cc2)nc2ccccc21 (stereo not drawn) ; retrieve measured activity.
A) 74.4

Q) GET /values?readout=activity&item= "CC(C)c1onc(C(=O)N2CCN(c3ccc(F)cc3)CC2)c1[N+](=O)[O-]"
A) 78.8

Q) For "O=C(NOCc1ccccc1)c1ccc(Cl)cc1Cl" , what is its reported activity?
A) 62.6

Q) Item under review: CCCCCCCNC(=O)C1(CC2CC(c3cccc(Br)c3)=NO2)CCNCC1 (stereo not drawn) . Reported activity?
A) 60.5

Q) I am curious: what activity value has been reported for "COc1ccc(NC(=O)c2ccc(C)cc2)cc1" ?
A) 66.1

Q) Name the reported activity value associated with the compound "O=Cc1s/c(=N\S(=O)(=O)c2ccccc2)n(CCCCl)c1Cl"
A) 94.2

Q) Given the compound "O=C(c1cc(-c2ccc3c(c2)OCO3)on1)N1CCCCC1" , what is its reported activity?
A) 53.4

Q) Which activity is reported for this compound? "Cc1ccc(CN=c2c([N+](=O)[O-])nn(-c3cccc(C)c3)n2O)cc1"
A) 16.2

Q) Any idea what its activity is? The compound is "Cc1ccc(S(=O)(=O)N2C[C@H]3[C@H]4C(=O)N(C5CCCCC5)C(=O)[C@H]4CC(=O)[C@H]3[C@@H]2c2cccc3ccccc23)cc1"
A) -8.53

Q) Please give the measured activity for this compound: "CC(C)(C)OC(=O)NCc1ccc(NC(=O)c2nc[nH]c2C(=O)NCCCNC(=O)c2[nH]cnc2C(=O)Nc2ccc(CNC(=O)OC(C)(C)C)cc2)cc1"
A) 87.7

Q) Item under review: "CCOc1ccc2nc(N(CCCN(C)C)C(=O)c3ccc(C(=O)c4ccccc4)cc3)sc2c1" . Reported activity?
A) 87.4

Q) Using the record for "CC1(C)N=C(N)N=C(N)N1c1ccc(CCCCc2ccccc2)cc1" , report its activity.
A) 53.6

Q) Request the reported activity associated with "O=C(Oc1c(CN2CCOCC2)cc(Cl)c2cccnc12)c1ccccc1Br"
A) 53.5

Q) Fill in: activity of C=C1CC2(CC(c3ccccc3)OC(c3ccccc3)C2)OC1=O (stereo not drawn) is ___
A) 47

Q) Entry "CS(=O)(=O)c1ccc2nc(NC(=O)c3cccc([N+](=O)[O-])c3)sc2c1" : reported activity = ?
A) 69.4

Q) Item "Cc1cnc(NC(=O)COc2ccccc2Cl)s1" has what recorded activity?
A) 83

Q) Need activity of "COc1ccc2oc(-c3ccccc3)cc(=O)c2c1" , thanks.
A) 76.1

Q) What value of activity has been recorded for this entry: "Clc1ccccc1-c1nnc(-c2ccc3c(c2)OCO3)o1"
A) 53.9

Q) // returns reported activity for input "O=C1c2cccc3c([N+](=O)[O-])ccc(c23)C(=O)N1c1ccccn1"
A) 91.4

Q) Dear colleague, I am looking for the recorded activity of the following compound: "CCCCN(C)C(=O)c1cc2cc3ccc(OC)cc3nc2s1"
A) 69.9

Q) May I ask what activity has been recorded for "Cc1ccc(NC(=O)c2ccc(CSc3nnnn3C)cc2)cc1" ?
A) 44.9

Q) // lookup activity for CN(C)c1ncnc2c1ncn2C1OC(CO)C(O)C1O (stereo not drawn)
A) 57.1
